Data origin: ChEMBL document CHEMBL4251615

test system: HOP-92; experiment: Growth inhibition of human HOP92 cells assessed as cell growth at 10 uM incubated for 48 hrs by sulforhodamine B assay relative to control; format: functional; settings: HOP-92, 48 h, read-out: Activity
The following compounds are shown together with reported growth at 10 µM values.
Output spec: scalar in %, unitless text.

These recorded examples may help you get a feel for the data.
- Molecule Smiles: "CCOC(=O)c1c(C)oc2ncnc(Nc3cccc(F)c3)c12"
  Measured Result: 88.3
- Molecule Smiles: "CCOC(=O)c1c(C)oc2ncnc(Nc3ccc(F)c(Cl)c3)c12"
  Measured Result: 72.1
- Molecule Smiles: "CCCNC(=O)c1c(C)oc2ncnc(Nc3cccc(Cl)c3)c12"
  Measured Result: 57.2
- Molecule Smiles: "Cc1oc2ncnc(Nc3cccc(F)c3)c2c1C(=O)O"
  Measured Result: 89.3
- Molecule Smiles: "Cc1cccc(Nc2ncnc3oc(C)c(C(=O)NCCO)c23)c1"
  Measured Result: 94.1
- Molecule Smiles: "Cc1cccc(Nc2ncnc3oc(C)c(C(=O)NCCN4CCOCC4)c23)c1"
  Measured Result: 97.6
- Molecule Smiles: "CCOC(=O)c1c(C)oc2ncnc(Nc3ccc(OCc4cccc(F)c4)cc3)c12"
  Measured Result: 104
- Molecule Smiles: "Cc1oc2ncnc(Nc3ccc(OCc4cccc(F)c4)c(Cl)c3)c2c1C(=O)NCCO"
  Measured Result: 41.9

Entry under review: Cc1oc2ncnc(Nc3cccc(Cl)c3)c2c1CO . Reported growth at 10 µM?
90.5
